- assay-system: purified recombinant human PARP (Homo sapiens, UniProt P09874)
- Construct: purchased Trevigan (Gaithersburg, Md.)
- Sequence (P09874 whole entry): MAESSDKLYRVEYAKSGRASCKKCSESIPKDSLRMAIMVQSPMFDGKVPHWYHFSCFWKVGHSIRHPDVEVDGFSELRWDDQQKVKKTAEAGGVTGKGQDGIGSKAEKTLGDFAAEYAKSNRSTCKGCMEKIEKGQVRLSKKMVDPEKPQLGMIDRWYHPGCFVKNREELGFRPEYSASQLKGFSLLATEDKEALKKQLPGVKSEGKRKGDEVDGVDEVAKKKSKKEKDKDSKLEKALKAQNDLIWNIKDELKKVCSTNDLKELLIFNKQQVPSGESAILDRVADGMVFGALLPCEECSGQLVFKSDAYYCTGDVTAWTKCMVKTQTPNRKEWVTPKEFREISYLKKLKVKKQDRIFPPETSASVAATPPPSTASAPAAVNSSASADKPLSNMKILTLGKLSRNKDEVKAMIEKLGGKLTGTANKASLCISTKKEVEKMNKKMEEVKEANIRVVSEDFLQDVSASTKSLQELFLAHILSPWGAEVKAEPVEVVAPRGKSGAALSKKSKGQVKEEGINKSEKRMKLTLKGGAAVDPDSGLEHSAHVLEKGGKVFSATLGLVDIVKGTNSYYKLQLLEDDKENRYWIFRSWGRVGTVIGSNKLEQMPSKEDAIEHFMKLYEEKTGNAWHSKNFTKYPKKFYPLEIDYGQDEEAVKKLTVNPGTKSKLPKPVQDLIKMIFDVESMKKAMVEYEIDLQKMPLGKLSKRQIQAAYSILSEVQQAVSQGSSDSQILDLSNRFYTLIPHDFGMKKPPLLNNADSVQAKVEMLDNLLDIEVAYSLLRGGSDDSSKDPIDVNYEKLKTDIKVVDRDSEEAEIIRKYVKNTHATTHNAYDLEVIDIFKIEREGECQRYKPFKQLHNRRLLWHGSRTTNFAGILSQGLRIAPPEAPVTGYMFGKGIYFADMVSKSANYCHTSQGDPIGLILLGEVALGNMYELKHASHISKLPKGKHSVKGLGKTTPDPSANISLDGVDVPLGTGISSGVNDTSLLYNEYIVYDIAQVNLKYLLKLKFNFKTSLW
- assay-notes: PARP enzyme assay with [3H]NAD, scintillation counting
- Format: biochemical
- condition-description: Table III; read-out: approximate IC50
Entries and their pIC50
Just the number, please; pIC50 means minus log10 of the concentration in mol/L.

Examples from the recorded data:
# molecule, pIC50
measured = [
    ("O=C(CNCCN1CCCCC1)Nc1ccc2[nH]c(=O)c3cccc4c3c2c1C4", 6.76),
    ("CCN(CC)CCNS(=O)(=O)c1ccc2[nH]c(=O)c3cccc4c3c2c1C4 [Example 13]", 7.32),
    ("CCOC(=O)C1CCCN(S(=O)(=O)c2ccc3[nH]c(=O)c4cccc5c4c3c2C5)C1 (stereo not shown)", 6.86),
]

Then this molecule:
INPUT: Send back purified recombinant human PARP (Homo sapiens, UniProt P09874) pIC50 of CN1CCN(NS(=O)(=O)c2ccc3[nH]c(=O)c4cccc5c4c3c2C5)CC1 only.
OUTPUT: 6.89
